Tested system: ATPase family AAA domain-containing protein 2 (Homo sapiens)
Sequence (Q6PL18 whole entry, the tested form may be a part): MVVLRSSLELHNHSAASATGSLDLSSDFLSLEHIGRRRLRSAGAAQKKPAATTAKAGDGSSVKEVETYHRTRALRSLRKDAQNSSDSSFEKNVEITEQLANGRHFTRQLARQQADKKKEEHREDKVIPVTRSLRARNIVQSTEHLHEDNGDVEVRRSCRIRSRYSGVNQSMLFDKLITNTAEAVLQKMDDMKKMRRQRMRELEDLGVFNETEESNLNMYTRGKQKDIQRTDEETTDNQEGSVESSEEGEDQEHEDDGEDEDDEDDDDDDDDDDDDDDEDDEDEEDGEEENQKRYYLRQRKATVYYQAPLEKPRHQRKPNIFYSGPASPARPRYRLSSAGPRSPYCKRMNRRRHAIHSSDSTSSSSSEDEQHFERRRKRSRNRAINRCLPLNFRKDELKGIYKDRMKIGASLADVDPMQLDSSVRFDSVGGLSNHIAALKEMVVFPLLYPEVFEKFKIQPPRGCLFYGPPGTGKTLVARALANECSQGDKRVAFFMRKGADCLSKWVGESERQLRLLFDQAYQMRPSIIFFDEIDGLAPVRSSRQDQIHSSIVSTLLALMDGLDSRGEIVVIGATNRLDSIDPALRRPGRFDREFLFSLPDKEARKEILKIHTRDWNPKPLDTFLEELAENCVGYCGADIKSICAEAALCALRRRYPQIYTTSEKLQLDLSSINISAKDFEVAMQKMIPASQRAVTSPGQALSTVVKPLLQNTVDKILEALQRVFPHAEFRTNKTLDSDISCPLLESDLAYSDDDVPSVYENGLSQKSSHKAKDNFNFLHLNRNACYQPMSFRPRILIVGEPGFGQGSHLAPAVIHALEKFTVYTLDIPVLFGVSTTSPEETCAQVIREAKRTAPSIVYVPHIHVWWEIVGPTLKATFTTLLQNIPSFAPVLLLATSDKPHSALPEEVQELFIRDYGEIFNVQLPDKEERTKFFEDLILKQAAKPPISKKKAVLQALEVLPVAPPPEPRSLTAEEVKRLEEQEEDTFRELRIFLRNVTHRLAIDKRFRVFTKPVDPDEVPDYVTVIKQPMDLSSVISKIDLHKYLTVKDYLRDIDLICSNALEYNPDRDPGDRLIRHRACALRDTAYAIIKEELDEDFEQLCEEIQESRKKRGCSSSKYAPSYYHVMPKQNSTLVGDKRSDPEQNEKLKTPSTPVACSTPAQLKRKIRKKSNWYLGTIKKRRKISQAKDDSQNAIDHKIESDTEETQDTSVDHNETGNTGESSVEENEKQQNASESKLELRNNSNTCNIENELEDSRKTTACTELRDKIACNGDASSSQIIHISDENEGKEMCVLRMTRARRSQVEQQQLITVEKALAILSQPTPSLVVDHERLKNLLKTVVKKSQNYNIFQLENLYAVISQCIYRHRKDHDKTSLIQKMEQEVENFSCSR
Run description: Binding affinity to human ATAD2A (Q981 to R1108 residues) expressed in bacterial expression system by BROMOScan assay
pKd: −log10 of the molar value.
Observed property: pKd

Ask: Any idea what its pKd is? The molecule is `COc1cc2c(cc1-c1c(C)noc1C)[nH]c1nc(C)nc(Nc3cc(C4CC4)nn3C)c12`
Reply: < 5.30

====

Run description: Oral bioavailability in Balb/c mouse at 25 mg/kg by LC-MS/MS analysis
Format: ADME, organism-based
Condition parameters: in vivo
Observed property: bioavailability (%)
Give the quantity in %, number only.

Ask: So what does the record say about bioavailability for `COc1cc2c(cc1-c1c(C)noc1C)[nH]c1nc(C)nc(Nc3cc(C4CC4)nn3C)c12` ?
Reply: 71.3

====

Run description: Plasma concentration in SCID mouse xenografted with human MDA-MB-231 cells at 50 mg/kg administered via oral gavage measured after 1 hr
Format: ADME, organism-based
Observed property: concentration at 1 h (ng/mL)
All answers are understood in ng/mL, so give the number only.

Ask: Need concentration at 1 h of `COc1cc2c(cc1-c1c(C)noc1C)[nH]c1nc(C)nc(Nc3cc(C(C)C)nn3C)c12` , thanks.
Reply: 6240

Ask: Please do the same for `COc1cc2c(cc1-c1c(C)noc1C)[nH]c1nc(C)nc(Nc3c4c(nn3C)CCCC4)c12` as well.
Reply: 2980

Ask: Try the compound `COc1cc2c(cc1-c1c(C)noc1C)[nH]c1nc(C)nc(Nc3c4c(nn3C)CCC4)c12`
Reply: 4880

Ask: How about this compound: `COc1cc2c(cc1-c1c(C)noc1C)[nH]c1nc(C)nc(Nc3cc(C4CC4)nn3C)c12`
Reply: 12600

Ask: Item: `COc1cc2c(cc1-c1c(C)noc1C)[nH]c1nc(C)nc(Nc3cc(C(C)(C)C)nn3C)c12`
Reply: 923

====

Run description: Drug uptake in tumor of SCID mouse xenografted with human MDA-MB-231 cells at 50 mg/kg administered via oral gavage measured after 1 hr
Type: ADME, organism-based, Neoplasm
Condition parameters: read-out: Drug uptake
Observed property: concentration at 1 h (ng/g)
Provide the reading as a plain figure in ng/g.

Ask: Would you kindly share the measured concentration at 1 h for `COc1cc2c(cc1-c1c(C)noc1C)[nH]c1nc(C)nc(Nc3c4c(nn3C)CCCC4)c12` ?
Reply: 466

Ask: Next: `COc1cc2c(cc1-c1c(C)noc1C)[nH]c1nc(C)nc(Nc3cc(C(C)C)nn3C)c12`
Reply: 736

Ask: Try this molecule too: `COc1cc2c(cc1-c1c(C)noc1C)[nH]c1nc(C)nc(Nc3c4c(nn3C)CCC4)c12`
Reply: 1510

Ask: Now give it for `COc1cc2c(cc1-c1c(C)noc1C)[nH]c1nc(C)nc(Nc3cc(C(C)(C)C)nn3C)c12` too.
Reply: 305

Ask: Please give the result for `COc1cc2c(cc1-c1c(C)noc1C)[nH]c1nc(C)nc(Nc3cc(C4CC4)nn3C)c12` too.
Reply: 7380

====

Tested system: Histone acetyltransferase KAT2A (Homo sapiens)
Sequence (Q92830 whole entry, the tested form may be a part): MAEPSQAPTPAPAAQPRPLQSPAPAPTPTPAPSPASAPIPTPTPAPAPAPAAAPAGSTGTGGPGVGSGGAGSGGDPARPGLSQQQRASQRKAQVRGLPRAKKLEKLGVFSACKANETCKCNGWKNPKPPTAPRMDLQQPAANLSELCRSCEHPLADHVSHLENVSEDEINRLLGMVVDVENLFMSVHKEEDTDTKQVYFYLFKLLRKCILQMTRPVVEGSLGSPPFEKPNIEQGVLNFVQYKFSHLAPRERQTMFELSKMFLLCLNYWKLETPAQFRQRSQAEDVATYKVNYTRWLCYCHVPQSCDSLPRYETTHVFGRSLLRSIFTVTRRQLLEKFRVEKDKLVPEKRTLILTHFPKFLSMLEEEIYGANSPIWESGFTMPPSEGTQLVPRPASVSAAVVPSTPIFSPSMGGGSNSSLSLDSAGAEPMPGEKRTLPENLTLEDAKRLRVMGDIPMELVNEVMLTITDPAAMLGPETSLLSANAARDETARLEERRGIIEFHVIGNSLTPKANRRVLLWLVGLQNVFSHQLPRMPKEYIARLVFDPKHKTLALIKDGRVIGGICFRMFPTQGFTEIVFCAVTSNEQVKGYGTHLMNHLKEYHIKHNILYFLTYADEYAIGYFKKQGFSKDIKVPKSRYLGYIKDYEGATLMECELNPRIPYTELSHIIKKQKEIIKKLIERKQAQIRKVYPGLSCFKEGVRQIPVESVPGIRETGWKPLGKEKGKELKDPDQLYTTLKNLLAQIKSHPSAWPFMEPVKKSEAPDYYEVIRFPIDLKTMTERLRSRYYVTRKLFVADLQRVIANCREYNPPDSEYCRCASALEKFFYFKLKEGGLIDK
Run description: Binding affinity to human GCN5L2 (E726 to K837 residues) expressed in bacterial expression system by BROMOScan assay
pKd: −log10 of the molar value.
Observed property: pKd

Ask: Any idea what pKd was measured for `COc1cc2c(cc1-c1c(C)noc1C)[nH]c1nc(C)nc(Nc3cc(C4CC4)nn3C)c12` ?
Reply: < 5.30
